Reference source for all entries: patent US20240239875A1

molecular target: SARS-CoV-2 prefusion stabilized trimer protein (WIV02 isolate spike protein) (UniProt P0DTC2 14-1213); experiment: ELISA
reported.metric: EC50
Output should be the measured figure followed by the unit it is expressed in.

binder: 2-H7-A (antibody, V domains shown) VH: QAYLQQSGAELVRPGASVKMSCKASGYTFTGYTMHWVKQTPRQGLEWIGAIYPENGDTSYNQKFKGKATLTVDKSSSTAYMQLSSLTSEDSAVYFCARDGYDVLYGMDYWGQGTSVTVSS VL: DIVLTQSPASLAVSLGQRATISCRASKSVSTSGYSYMHWYQQKPGQPPKLLIYLASNLESGVPARFSGSGSGTDFTLNIHPVEEEDAATYYCQHSRELPWTFGGGTKLDIK
measurement: 0.13 nM

Ask | Dear colleague, please send me the reported EC50 for 3-P7-A (antibody, V domains shown) VH: QAYLQQSGAELVRPGASVKMSCKASGYTFTSYSMHWVKQTPRQGLEWIGAIYPGNDDTSYNQKFKGKATLTVDKSSSTAYMQLSSLTSEDSAVYFCTRDYTNYPFDYWGQGTTLTVSS VL: DIVLTQSPASLPVSLGQRATISCRASKSVSTSGYSYMHWYQQRPGQPPKLLIYLASNLESGVPARFSASGSGTDFTLNIHPVEEEDAATYYCQHSRELPPTFGGGTKVEIK when you can.
Reply | 38.1 nM

Ask | Dear colleague, please send me the reported EC50 for 5-H22-A (antibody, V domains shown) VH: QVQLQQSGAELVRPGASVTLSCKASGYTFTDYEMHWMKQTPVHGLEWIGAIDLETGGTVYNQKFKGKAILTADKSSNTAYMALRSLTSEDSAVYYCTREFPHYYGSRYGFPYWGQGTLVTVSA VL: QIVLTQSPAIMSASPGEKVTITCSASSSVSYMHWLQQKPGTSPKLWIYSTSNLASGVPARFSGSGSGTSYSLTISRMEAEDAATYYCQQRSSYPYTFGGGTKLEIK when you can.
Reply | 75.5 nM

Ask | Dear colleague, please send me the reported EC50 for 4-M3-A (antibody, V domains shown) VH: EVQLQQSGPELVKPGDSVKISCKASGYSFTGYFMNWVMQSHGKSLEWIGRINPNNGETFYNQKFKGKATLTVDKSSDTAHMELRSLTSEDSAVYYCARGGTGTGWGQGTTLTVSS VL: DILMTQSPSSMSVSLGDTVSITCHASQGISSNIGWLQQKPGKSFKGLIYYGTNLEDGVPSRFSGSGSGADYSLTISSLESEDLADYYCIQYAQFPYTFGGGTKLEIK when you can.
Reply | 1.94 nM

Ask | Dear colleague, please send me the reported EC50 for 9-F6-A (antibody, V domains shown) VH: EVQLQQSGPELVKPGASVKMSCKASGYTFTSYIMHWVKQKPGQGLEWIGYILPYNDGTKYNEKFKGKATLTSDKSSSTAYMELRSLTSEDSAVYYCARWGYSNFLDSWGQGTTLTVSS VL: DIQMTQTTSSLSASLGDRVTISCRASQDINNYLNWYQQKPDGTVKLLIYYTSRLHSGVPSRFSGSGSGTDYSLTIRNLEQEDIATYFCQQGNTLPPTFGGGTKLEIK when you can.
Reply | 0.59 nM
